These entries and their values trace back to patent US20250114389A1.

test system: SARS-CoV2 Lineage A (Wa); experiment: Antiviral activity against SARS-CoV2 Lineage A (Wa) in Calu3; format: cell-based; settings: Severe acute respiratory syndrome coronavirus 2, Calu-3, read-out: Antiviral Activity Against SARS-CoV2 Variants in Calu3, first value column
pEC50: −log10 of the molar value.
Observed Property: pEC50

INSERT INTO assay_data (compound, study_target, recorded_measurement) VALUES
  ('N#C[C@@]1(n2ccc(N)nc2=O)O[C@H](CO)[C@@H](O)[C@H]1O [Compound A]', 'SARS-CoV2 Lineage A (Wa)', 5.77);

----------
system: SARS-CoV2 variant Alpha; assay: microbe, parasite or virus in culture; format: cell-based; conditions: Severe acute respiratory syndrome coronavirus 2, Vero, read-out: Antiviral Activity Against SARS-CoV2 Variants in Vero, first value column
Observed Property: EC50

INSERT INTO results (cpd_smiles, recorded_measurement) VALUES
  ('N#C[C@@]1(n2ccc(N)nc2=O)O[C@H](CO)[C@@H](O)[C@H]1O', '800 nM');

----------
system: SARS-CoV2 Lineage A (Wa); assay: Antiviral activity against SARS-CoV2 Lineage A (Wa) in Vero; format: cell-based; details: Severe acute respiratory syndrome coronavirus 2, read-out: Antiviral Activity Against SARS-CoV2 Variants in Vero, first value column
Observed Property: EC50 (nM)

INSERT INTO measurements (compound, study_target, unit_spec, recorded_measurement) VALUES
  ('N#C[C@@]1(n2ccc(N)nc2=O)O[C@H](CO)[C@@H](O)[C@H]1O [Compound A]', 'SARS-CoV2 Lineage A (Wa)', 'nM', 200);
